assay: Cytotoxicity against human HaCaT cells assessed as reduction in cell viability measured after 24 hrs by CCK-8 method; assay type: toxicity, cell-based
// reported IC50 at 24 h per item
Measured metric: IC50 at 24 h (µg/mL)

>>> readout_number("O=C(CCC(F)(F)F)N(Cc1cc2ccccc2s1)c1cc(-c2ccc(F)cc2)ccc1O")
14.7
>>> readout_number("O=C(CCC(F)(F)F)N(Cc1cc2ccccc2s1)c1cc(-c2ccc(C(F)(F)F)cc2)ccc1O")
3.92
>>> readout_number("O=C(CCC(F)(F)F)N(Cc1cc2ccccc2s1)c1cc(-c2ccc(Cl)cc2)ccc1O")
13.8
>>> readout_number("O=C(CCC(F)(F)F)N(Cc1cc2ccccc2s1)c1cc(-c2cccc(C(F)(F)F)c2)ccc1O")
13

* * *

test system: Staphylococcus aureus; assay: Antimicrobial activity against Staphylococcus aureus ATCC6538 assessed as reduction in bacterial growth incubated for 24 hrs by two-fold broth dilution method; assay type: functional
// reported MIC per item
Measured metric: MIC (µg/mL)

>>> readout_number("O=C(CCC(F)(F)F)N(Cc1cc2ccccc2s1)c1cc(-c2ccco2)ccc1O")
2
>>> readout_number("O=C(CCC(F)(F)F)N(Cc1cc2ccccc2s1)c1c(O)cccc1-c1ccccc1")
2
>>> readout_number("CCCCC(=O)N(Cc1cc2ccccc2c2ccccc12)c1ccc2ccccc2c1O")
62.5
>>> readout_number("O=C(CCC(F)(F)F)N(Cc1cc2ccccc2s1)c1ccc(-c2ccccc2)cc1O")
2
>>> readout_number("CCCCC(=O)N(Cc1cc2ccccc2s1)c1ccc2ccccc2c1O")
15.6
>>> readout_number("O=C(CCC(F)(F)F)N(Cc1cc2ccccc2s1)c1cc(-c2ccccc2)ccc1O")
1

* * *

// reported MIC per item
system: Staphylococcus aureus; assay: Antimicrobial activity against methicillin resistant Staphylococcus aureus clinical isolate MRS152 assessed as reduction in bacterial growth incubated for 24 hrs by two-fold broth dilution method; type: functional
Measured metric: MIC (µg/mL)

>>> readout_number("O=C(CCC(F)(F)F)N(Cc1cc2ccccc2s1)c1cc(-c2ccc(Cl)cc2)ccc1O")
6
>>> readout_number("COc1ccccc1-c1ccc(O)c(N(Cc2cc3ccccc3s2)C(=O)CCC(F)(F)F)c1")
6
>>> readout_number("O=C(CCC(F)(F)F)N(Cc1cc2ccccc2s1)c1cc(-c2ccc(F)cc2)ccc1O")
6
>>> readout_number("O=C(CCC(F)(F)F)N(Cc1cc2ccccc2s1)c1cc(-c2ccccc2)ccc1O")
2
>>> readout_number("COc1cccc(OC)c1C(=O)N[C@@H]1C(=O)N2[C@@H]1SC(C)(C)[C@@H]2C(=O)O [METHICILLIN]")
8
>>> readout_number("O=C(CCC(F)(F)F)N(Cc1cc2ccccc2s1)c1cc(-c2ccco2)ccc1O")
6

* * *

assay: Cytotoxicity against human HaCaT cells assessed as reduction in cell viability measured after 24 hrs by CCK-8 method; type: toxicity, cell-based
Measured metric: IC50 at 24 h

>>> result("O=C(CCC(F)(F)F)N(Cc1cc2ccccc2s1)c1cc(-c2ccco2)ccc1O")
"> 25 µg/mL"
>>> result("O=C(CCC(F)(F)F)N(Cc1cc2ccccc2s1)c1cc(-c2noc(C(F)(F)F)n2)ccc1O")
"> 25 µg/mL"
>>> result("O=C(CCC(F)(F)F)N(Cc1cc2ccccc2s1)c1cc(-c2ccccc2)ccc1O")
"> 25 µg/mL"
